TARGET_SYSTEM: Ab-7^123 dl-Met complex (epinephrine type catecholamine antibody)
ASSAY_PROTOCOL: Antibody specificity: 50% inhibition of antibody-labelled dl-metanephrine complex (competitive binding radioimmunoassay)
Parameters: species or system rabbit
EXPERIMENTAL_SETUP: amount for 50% inhibition; incubation volume 0.5 or 1.0 ml
For each entry below, report its 50 % INHIBITION OF Ab-7^123 dl-Met OMPLEX value.

- MOLECULE: "CNC[C@H](O)c1ccc(O)c(O)c1 [1-Epinephrine]"
  RESULT: "0.250 ng"
- MOLECULE: "NCCc1c[nH]c2ccc(O)cc12"
  RESULT: "> 500 ng"
- MOLECULE: "CC(C)NCC(O)c1ccc(O)c(O)c1 (stereo not shown)"
  RESULT: "> 500 ng"

Please state 50 % INHIBITION OF Ab-7^123 dl-Met OMPLEX for every molecule in the list that follows.
1. CNCCc1ccc(O)c(O)c1 [Epinine]
2. CNCC(O)c1ccc(O)cc1 (racemic) [dl-Synephrine]
3. CC(N)Cc1ccccc1 (stereo not shown)
4. CNCC(O)c1ccc(O)c(OC)c1 (racemic)
5. CNC(C)Cc1ccccc1 (stereo not shown)
6. CNC(C)C(O)c1ccccc1 (stereo not shown)

stdout:
0.350 ng
0.100 ng
> 500 ng
0.050 ng
> 500 ng
> 500 ng

Please state 50 % INHIBITION OF Ab-7^123 dl-Met OMPLEX for every molecule in the list that follows.
1. NC[C@H](O)c1ccc(O)c(O)c1 [1-Norepinephrine]
2. CNC[C@H](O)c1cccc(O)c1
3. NCCc1ccc(O)c(O)c1
4. N[C@@H](Cc1ccc(O)c(O)c1)C(=O)O

stdout:
1: > 500 ng; 2: 0.060 ng; 3: > 500 ng; 4: > 500 ng
